B1: library; a variant is named by its letters at N, in order (parent)
chain: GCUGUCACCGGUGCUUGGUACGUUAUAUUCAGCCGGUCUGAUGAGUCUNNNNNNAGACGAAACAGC

variants of: B1; assay: normalized RNA/DNA level with ligand (relative to sTRSVctl = 100) (log10 (% of sTRSVctl)); HEK293T overexpressing SLC46A1; ligand concentration (+) RNA-Seq: 6 mM; higher = less ribozyme self-cleavage, higher mRNA level; conditions: with (6R,S)-folinic acid; ligand present: yes
measured-property: normalized RNA/DNA level with ligand (log10)
Would you mind answering with just the numeric figure?

Previously resolved entries follow.
INSERT INTO assay_data (mutation_code, measurement) VALUES
  ('AGGAAG', 2.01),
  ('AGCAUG', 2.03),
  ('UUGAGC', 2.05),
  ('CGUUAU', 2),
  ('CAUCGA', 2.06),
  ('GCAUGA', 2.08),
  ('GAGGCU', 2.04),
  ('UAUUAG', 1.98),
  ('UGACGU', 2.02),
  ('UUGAUG', 1.99);

Query string: State its normalized RNA/DNA level with ligand (log10) for this variant: `ACCUUC`
Result string: 2.04

Query string: Please give the documented normalized RNA/DNA level with ligand (log10) of `GUUUCC`
Result string: 2

Query string: Identify normalized RNA/DNA level with ligand (log10) associated with the variant `AGUAAA`
Result string: 1.98

Query string: For the variant `CCGAUA` , report normalized RNA/DNA level with ligand (log10).
Result string: 2.01

Query string: Answer with reported normalized RNA/DNA level with ligand (log10) of `UUUCCA`
Result string: 2.01

Query string: Please report normalized RNA/DNA level with ligand (log10) for the following variant: `CUUCCC`
Result string: 2

Query string: State its normalized RNA/DNA level with ligand (log10) for this variant: `ACGUCG`
Result string: 2.06

Query string: Specify measured normalized RNA/DNA level with ligand (log10) for `UCAAUG` .
Result string: 2

Query string: Provide normalized RNA/DNA level with ligand (log10) value for the following variant: `GAUCUC`
Result string: 1.99

Query string: Find the measured normalized RNA/DNA level with ligand (log10) of `AAUAGG` and report it.
Result string: 1.99

The reported numbers originate from the supplement of paper PMC6757056.
